# test: Plasma, brain and CSF pharmacokinetics and brain tissue accumulation in mice (LC-MS/MS)
# Format: in vivo, male C57BL/6 mice
# setupConditions: male, C57BL/6, mouse, brain and CSF; 5 mg/kg oral; time point 0.25 h; read-out: Brain/CSF-Kp
observationType: Kp at 0.25 h
Answers are plain numbers.

// Cc1c(N[S+](=O)(O)c2c(Cl)cc(-c3ccnc(N4CCNCC4)c3)cc2Cl)c(CC(C)C)nn1C [PCLX-001] : Kp at 0.25 h value = 13

###

# test: Plasma pharmacokinetics in phase I clinical trial NCT04836195 (oral daily dose)
# Assay type: in vivo, human
# setupConditions: human, plasma, oral, 70 mg, plasma; 70 mg; Cycle 1 D15; read-out: Tmax (median, range)
observationType: Tmax (h)
Numbers only, in h.

Looking up Cc1c(N[S+](=O)(O)c2c(Cl)cc(-c3ccnc(N4CCNCC4)c3)cc2Cl)c(CC(C)C)nn1C , I found its Tmax recorded as 4.1
